- System: male rats
- assay comment: 28-day repeated dose study, plasma metabolite profiling (GC-MS, LC-MS), male rats
- Format: in vivo, rat
- condition parameters: day 28
Marks after values point to notes of the source that are not given here.
property name: Oleic acid (C18:cis[9]1), plasma, treatment ratio versus control

Worked examples follow.
molecule: CCCCOCCO
observed: 0.91
//
molecule: Cc1ncc[nH]1
observed: 0.8*
//
molecule: CC(C=O)Cc1ccc(C(C)(C)C)cc1 (stereo not shown)
observed: 0.81*

Task: Record request: Oleic acid (C18:cis[9]1), plasma, treatment ratio versus control value, item `CC(=O)CCC(C)=O`
Result: 0.92*

----------
- Tested on: male rats
- assay comment: 28-day repeated dose study, plasma metabolite profiling (GC-MS, LC-MS), male rats
- Assay type: in vivo, rat
- condition parameters: day 7
Marks after values point to notes of the source that are not given here.
property name: Coenzyme Q9, plasma, treatment ratio versus control

compound: CC(C=O)Cc1ccc(C(C)(C)C)cc1 (stereo not drawn) [Lysmeral, 2-Methyl-3(4-tert.-butylphenyl)-propanal]
observed: 0.21*
--
compound: C#CC1(O)CCC2C3CCc4cc(O)ccc4C3CCC21C (stereo not drawn) [17-alpha-Ethynylestradiol]
observed: 0.09*
--
compound: CC(=O)CCC(C)=O [2,5-hexanedione]
observed: 0.89
--
compound: Cc1ncc[nH]1 [2-Methylimidazole]
observed: 0.72*
--
compound: CCCCOCCO [2-Butoxyethanol]
observed: 0.83*

Task: What does the data say about its Coenzyme Q9, plasma, treatment ratio versus control? Entry: COCCO [2-Methoxyethanol]
Result: 0.57*

----------
Let's look at some compounds and their measured Coenzyme Q9, plasma, treatment ratio versus control.
- Test system: male rats
- assay comment: 28-day repeated dose study, plasma metabolite profiling (GC-MS, LC-MS), male rats
- Assay type: in vivo, rat
- condition parameters: day 14
Marks after values point to notes of the source that are not given here.

Examples from the recorded data:
compound: Cc1ncc[nH]1
observed: 0.67*
--
compound: CC(C=O)Cc1ccc(C(C)(C)C)cc1 (stereo not drawn)
observed: 0.27*
--
compound: CC(=O)CCC(C)=O
observed: 1.12*
--
compound: CCCCOCCO
observed: 0.5*
--
compound: COCCO
observed: 0.58*

Please find the next compound below.
Task: # get_value(readout='Coenzyme Q9, plasma, treatment ratio versus control', item= C#CC1(O)CCC2C3CCc4cc(O)ccc4C3CCC21C (stereo not drawn) )
Result: 0.86

----------
The entries below are paired with their reported Lysine, plasma, treatment ratio versus control.
- Test system: male rats
- assay comment: 28-day repeated dose study, plasma metabolite profiling (GC-MS, LC-MS), male rats
- Format: in vivo, rat
- condition parameters: day 7
Marks after values point to notes of the source that are not given here.

Here's what some known entries look like.
compound: Cc1ncc[nH]1
observed: 0.81*
//
compound: CC(C=O)Cc1ccc(C(C)(C)C)cc1 (stereo not drawn)
observed: 6.14*
//
compound: CCCCOCCO
observed: 0.81*
//
compound: COCCO
observed: 1.22*
//
compound: CC(=O)CCC(C)=O
observed: 0.96*

Task: Return reported Lysine, plasma, treatment ratio versus control; argument: C#CC1(O)CCC2C3CCc4cc(O)ccc4C3CCC21C (stereo not drawn)
Result: 1.47

----------
- Test system: male rats
- assay comment: 28-day repeated dose study, plasma metabolite profiling (GC-MS, LC-MS), male rats
- Type: in vivo, rat
- condition parameters: day 28
Marks after values point to notes of the source that are not given here.
// values below are reported Palmitoleic acid (C16:cis[9]1), plasma, treatment ratio versus control

// below: answered compounds
compound: Cc1ncc[nH]1
observed: 0.88*

compound: CC(C=O)Cc1ccc(C(C)(C)C)cc1 (stereo not shown)
observed: 0.37*

compound: CCCCOCCO
observed: 0.77

Task: // Palmitoleic acid (C16:cis[9]1), plasma, treatment ratio versus control lookup, key: `CC(=O)CCC(C)=O`
Result: 1.11

Each recorded value in this set is attributed to patent US20140342379A1.
